Recorded values, source patent US10548935B2.

- measurement.target: NK-1 receptor (Homo sapiens)
- Construct: host or cells: U2OS (Tango TACR1-bla)
- Sequence (P25103 whole entry): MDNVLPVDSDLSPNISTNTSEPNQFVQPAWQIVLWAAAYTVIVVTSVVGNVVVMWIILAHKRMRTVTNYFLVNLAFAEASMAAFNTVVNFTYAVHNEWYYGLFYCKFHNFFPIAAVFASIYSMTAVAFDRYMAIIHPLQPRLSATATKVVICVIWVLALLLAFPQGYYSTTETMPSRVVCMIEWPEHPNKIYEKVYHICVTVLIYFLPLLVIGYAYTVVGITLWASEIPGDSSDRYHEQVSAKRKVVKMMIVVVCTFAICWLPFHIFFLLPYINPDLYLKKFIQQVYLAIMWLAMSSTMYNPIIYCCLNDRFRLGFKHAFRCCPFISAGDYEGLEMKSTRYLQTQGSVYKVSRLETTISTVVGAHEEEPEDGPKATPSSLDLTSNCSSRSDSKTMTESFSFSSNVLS
- test.method.notes: Tango GPCR cell-based assay, TACR1-bla U2OS cells, NK-1 receptor inhibitors
- condition.summary: 1 nM SAR9 Substance P agonist
experimental.readout: NK-1 receptor inhibitory effect

CCCCCCCCCCCCCC[C@@H](O)[C@@H](O)[C@@H](N)CO: surprisingly high
CC/C=C\CC/C=C/CO [Trans-2,cis-6-nonadienol]: surprisingly high
CC1(C)[C@@H](O)CC[C@]2(C)[C@H]3C(=O)C=C4[C@@H]5C[C@@](C)(C(=O)O)CC[C@]5(C)CC[C@@]4(C)[C@]3(C)CC[C@@H]12: surprisingly high
COc1ccc(/C=C/C=O)cc1 [Trans-4-methoxycinnamaldehyde]: surprisingly high

I am curious: what NK-1 receptor inhibitory effect value has been reported for O=C(/C=C/c1ccccc1O)c1ccc(O)cc1O [2,2′,4′-trihydroxy-chalcone] ? surprisingly high

I am curious: what NK-1 receptor inhibitory effect value has been reported for `O=C(/C=C/c1ccccc1)c1ccccc1` ? surprisingly high

I am curious: what NK-1 receptor inhibitory effect value has been reported for CCCCCCCCCCCCCCCC(=O)OC(CC(=O)O)C[N+](C)(C)C.[Cl-] (racemic) [DL-palmitoylcarnitine chloride] ? surprisingly high

I am curious: what NK-1 receptor inhibitory effect value has been reported for `O=c1cc(-c2ccc(O)c(O)c2)oc2cc(O)cc(O)c12` ? surprisingly high

I am curious: what NK-1 receptor inhibitory effect value has been reported for O=c1c(O)c(-c2ccccc2)oc2ccc(O)cc12 [3,6-Dihydroxyflavone] ? surprisingly high
